assay_procedure: modulators of CIT2-GFP expression in yeast, confirmation, S. cerevisiae, GFP fusion, cherry picks, mother/daughter gates (AID 2274)
applied_conditions: S. cerevisiae CIT2-GFP strain, flow cytometry, 3 h; measured here: daughter cell gate; at 10 µM; stronger effect = higher value
parameter_measured: GFP response, % of DMSO (%)
Field format: number, assumed %, no unit text.

Use the examples below as a reference point.
compound	scale_unit	GFP response, % of DMSO
Cc1cccn2c(=O)c(/C=C(\C#N)C(=O)NCc3ccco3)c(N3CCOCC3)nc12	%	103
Cc1nnc(NC(=O)c2nc(S(=O)(=O)Cc3ccccc3)ncc2Cl)s1	%	103
C/C(=N/NC(=O)c1ccc(C(C)(C)C)cc1)c1ccccn1	%	115
Oc1ccc(-c2nc3ccccn3c2NCc2ccco2)cc1	%	105
COc1ccc(C(=O)/C=C2/C(=O)Nc3ccccc32)cc1	%	97.2
COc1cc(/C=C2\C(=O)ON=C2c2ccccc2)cc(Br)c1O	%	95.8

// fetch GFP response, % of DMSO given entry CCOC(=O)COc1c(Cl)cc(/C=C2\N=C(C)OC2=O)cc1OC
105

// fetch GFP response, % of DMSO given entry CCCc1[nH]nc2c1C(c1cc(OC)cc(OC)c1)C(C#N)=C(N)O2 (stereo unspecified)
93.2

// fetch GFP response, % of DMSO given entry COC(=O)c1cc(NC(=O)c2c(Cl)nc3sccn23)cc(C(=O)OC)c1
101

// fetch GFP response, % of DMSO given entry CCOC(=O)c1ccc(NC(=O)CCc2nc(-c3cccc(C)c3)no2)cc1
102
